Values compiled from patent US10988477B2.

# assayed-target: intracellular GCN2 (phosphorylation of the GCN2 substrate eIF2α) (Homo sapiens, UniProt Q9P2K8)
# Sequence (Q9P2K8 whole entry): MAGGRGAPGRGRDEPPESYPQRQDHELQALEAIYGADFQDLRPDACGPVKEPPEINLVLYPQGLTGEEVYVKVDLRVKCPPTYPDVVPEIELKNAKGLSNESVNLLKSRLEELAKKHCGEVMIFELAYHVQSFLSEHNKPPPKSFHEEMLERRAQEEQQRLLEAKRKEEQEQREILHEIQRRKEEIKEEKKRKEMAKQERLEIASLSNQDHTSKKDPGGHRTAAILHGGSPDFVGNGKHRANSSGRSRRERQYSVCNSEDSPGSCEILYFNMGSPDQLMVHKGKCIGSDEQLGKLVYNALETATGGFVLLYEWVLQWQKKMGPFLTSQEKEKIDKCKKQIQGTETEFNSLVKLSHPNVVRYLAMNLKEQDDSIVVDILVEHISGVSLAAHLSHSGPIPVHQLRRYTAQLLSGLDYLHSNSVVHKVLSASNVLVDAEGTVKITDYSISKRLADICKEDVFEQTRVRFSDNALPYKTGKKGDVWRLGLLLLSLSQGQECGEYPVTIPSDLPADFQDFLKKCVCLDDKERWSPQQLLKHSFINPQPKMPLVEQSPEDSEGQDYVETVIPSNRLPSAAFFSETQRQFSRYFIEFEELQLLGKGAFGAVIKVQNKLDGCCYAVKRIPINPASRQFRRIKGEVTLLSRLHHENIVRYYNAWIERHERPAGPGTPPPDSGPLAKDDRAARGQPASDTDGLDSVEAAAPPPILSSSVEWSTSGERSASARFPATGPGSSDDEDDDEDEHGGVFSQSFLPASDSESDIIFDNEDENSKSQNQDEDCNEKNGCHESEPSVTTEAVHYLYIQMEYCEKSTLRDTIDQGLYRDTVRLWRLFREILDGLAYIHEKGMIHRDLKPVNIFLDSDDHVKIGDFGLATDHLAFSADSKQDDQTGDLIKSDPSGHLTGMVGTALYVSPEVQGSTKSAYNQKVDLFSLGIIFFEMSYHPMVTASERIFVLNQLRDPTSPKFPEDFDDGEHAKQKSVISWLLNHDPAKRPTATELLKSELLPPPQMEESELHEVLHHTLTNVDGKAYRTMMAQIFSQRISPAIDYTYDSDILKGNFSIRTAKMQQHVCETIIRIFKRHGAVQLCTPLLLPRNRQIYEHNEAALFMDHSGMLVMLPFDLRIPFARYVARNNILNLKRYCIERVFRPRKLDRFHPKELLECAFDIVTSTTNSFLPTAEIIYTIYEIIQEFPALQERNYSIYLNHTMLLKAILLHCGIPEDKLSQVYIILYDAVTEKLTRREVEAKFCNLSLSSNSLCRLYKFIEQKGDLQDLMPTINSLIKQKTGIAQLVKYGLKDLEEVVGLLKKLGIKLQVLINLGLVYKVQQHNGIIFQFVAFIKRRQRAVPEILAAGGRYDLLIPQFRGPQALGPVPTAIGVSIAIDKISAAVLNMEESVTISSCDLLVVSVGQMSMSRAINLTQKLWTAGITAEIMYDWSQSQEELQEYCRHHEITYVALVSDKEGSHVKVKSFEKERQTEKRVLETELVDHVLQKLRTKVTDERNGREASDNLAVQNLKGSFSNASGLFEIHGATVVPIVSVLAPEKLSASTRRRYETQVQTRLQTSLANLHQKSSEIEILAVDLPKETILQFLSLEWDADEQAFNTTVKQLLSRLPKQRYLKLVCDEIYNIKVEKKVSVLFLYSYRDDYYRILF
# measurement-description: GCN2 cellular inhibition assay (AlphaScreen SureFire P-eIF2α Ser51, borrelidin-treated U2OS cells)
# Format: cell-based
# condition-label: compounds of Formula II; biomarker assay, phosphorylated eIF2α Ser51 in borrelidin-treated U2OS cells
pIC50: −log10 of the molar value.
readout-kind: pIC50

compound | pIC50
CS(=O)(=O)C1CCCN(c2cc(-c3cnc4ccc(C(F)F)nn34)ncn2)C1 (centres unmarked) [II-19] | 5.30 to 6.30

Notebook: C[C@H]1[C@@H](C[S@@](C)(=N)=O)CCCN1c1cc(-c2cnc3ccc(C(F)F)nn23)ncn1 [II-485] , pIC50 read as > 6.30

Notebook: NS(=O)(=O)C1CCN(c2cc(-c3cnc4ccc(C(F)F)nn34)ncn2)C1 (centres unmarked) [II-192] , pIC50 read as < 5.30

Notebook: CS(=O)(=O)NCC1COCCN(c2cc(-c3cnc4ccc(C(F)F)nn34)ccn2)C1 (centres unmarked) [II-99] , pIC50 read as 5.30 to 6.30

Notebook: CNS(=O)(=O)C1CCCN(c2cc(-c3cnc4ccc(C(F)F)nn34)ncn2)C1 (centres unmarked) [II-480] , pIC50 read as < 5.30
